B1: ANKRD44 (parent)
chain: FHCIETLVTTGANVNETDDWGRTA

Variants of: B1
Test: protein stability index of a GFP-peptide fusion (GPS, HEK-293T) (PSI 1-6); higher = more stable;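 also: lentivirally expressed fusions sorted by FACS into six bins by GFP to DsRed ratio, PSI derived from sequencing read proportions per bin multiplied by bin number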
Details: c terminus: a fixed tail appended
experimental readout: protein stability index

1. T6R: 1.96
2. T9R: 1.86
3. E5C: 2.02
4. E16K: 2.5
5. R22Y: 1.95
6. A24C: 1.98
7. T6C: 1.75
8. T17N: 1.86
9. E5L: 4.06
10. I4H: 2.15
11. T10V: 2.17
12. I4Y: 1.9
13. G21L: 2.12
14. V8Y: 2.27
15. L7Y: 3.58
16. N13L: 2.11
17. A24N: 2.03
18. G21K: 2.42
19. V8H: 2.45
20. V8Q: 3
21. T23I: 1.86
22. G11C: 2.09
